Target Of Assay: α-amylase from porcine pancreas (Sus scrofa)
Construct: A saline suspension of α-amylase from porcine pancreas; purchased Sigma Aldrich (Steinheim, Germany) Lot #SLBN9170V (catalogue number not given); host or cells: porcine pancreas (tissue-derived)
Sequence (P00690 16-511): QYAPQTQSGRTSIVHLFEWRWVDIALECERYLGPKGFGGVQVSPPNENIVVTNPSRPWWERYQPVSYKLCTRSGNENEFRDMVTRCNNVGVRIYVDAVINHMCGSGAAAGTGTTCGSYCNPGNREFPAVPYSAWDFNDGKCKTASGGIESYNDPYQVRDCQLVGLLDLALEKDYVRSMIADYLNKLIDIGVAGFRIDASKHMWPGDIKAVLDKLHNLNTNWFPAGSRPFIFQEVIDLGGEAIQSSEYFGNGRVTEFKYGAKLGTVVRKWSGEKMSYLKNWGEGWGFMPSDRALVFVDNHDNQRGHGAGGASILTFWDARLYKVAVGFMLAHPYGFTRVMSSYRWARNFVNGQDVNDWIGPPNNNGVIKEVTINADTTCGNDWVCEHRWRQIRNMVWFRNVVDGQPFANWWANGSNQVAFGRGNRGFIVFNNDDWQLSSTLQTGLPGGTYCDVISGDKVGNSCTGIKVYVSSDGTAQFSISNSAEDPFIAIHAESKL
Method Description: α-amylase enzyme activity assay, GalG2CNP conversion, UV/Vis detection of CNP at 405 nm
Format: biochemical
Condition Description: mean over inhibitor c 12,5, 25, 50 µM (Supplementary 2); read-out: Kiu mean ± SD
pKi: −log10 of the molar value.
Measured Metric: pKi

COc1cc(-c2[o+]c3cc(O)cc(O)c3cc2O[C@@H]2O[C@H](CO)[C@@H](O)[C@H](O)[C@H]2O)ccc1O [Peo-glc, peonidin-3-glucoside]: 3.54
OC[C@H]1O[C@@H](Oc2cc3c(O)cc(O)cc3[o+]c2-c2ccc(O)c(O)c2)[C@H](O)[C@@H](O)[C@@H]1O [Cyd-glc, cyanidin-3-glucoside]: 3.75

----------
pKi: recorded values
Target Of Assay: α-amylase from porcine pancreas (Sus scrofa, UniProt P00690)
Construct: A saline suspension of α-amylase from porcine pancreas; purchased Sigma Aldrich (Steinheim, Germany) Lot #SLBN9170V (catalogue number not given); host or cells: porcine pancreas (tissue-derived)
Sequence (P00690 16-511): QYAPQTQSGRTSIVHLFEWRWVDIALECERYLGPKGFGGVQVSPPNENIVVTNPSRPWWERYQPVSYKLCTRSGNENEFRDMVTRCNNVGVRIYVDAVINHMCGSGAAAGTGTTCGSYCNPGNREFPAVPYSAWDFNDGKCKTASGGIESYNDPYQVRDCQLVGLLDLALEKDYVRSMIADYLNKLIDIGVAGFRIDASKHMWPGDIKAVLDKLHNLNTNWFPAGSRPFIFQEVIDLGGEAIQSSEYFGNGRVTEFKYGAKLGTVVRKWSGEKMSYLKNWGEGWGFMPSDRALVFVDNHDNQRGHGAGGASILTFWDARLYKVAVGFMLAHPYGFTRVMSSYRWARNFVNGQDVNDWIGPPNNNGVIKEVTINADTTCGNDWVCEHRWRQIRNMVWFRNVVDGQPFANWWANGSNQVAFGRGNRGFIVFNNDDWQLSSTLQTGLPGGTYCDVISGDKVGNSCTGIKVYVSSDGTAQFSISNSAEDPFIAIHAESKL
Method Description: α-amylase enzyme activity assay, GalG2CNP conversion, UV/Vis detection of CNP at 405 nm
Format: biochemical
Condition Description: from apparent values; inhibitor c 12,5 µM; read-out: Kic
pKi: −log10 of the molar value.
Measured Metric: pKi

OC[C@H]1O[C@@H](Oc2cc3c(O)cc(O)cc3[o+]c2-c2ccc(O)cc2)[C@H](O)[C@@H](O)[C@@H]1O [Plg-glc, pelargonidin-3-glucoside]: 4.04
COc1cc(-c2[o+]c3cc(O)cc(O)c3cc2O[C@@H]2O[C@H](CO)[C@@H](O)[C@H](O)[C@H]2O)ccc1O [Peo-glc, peonidin-3-glucoside]: 3.74
OC[C@H]1O[C@@H](Oc2cc3c(O)cc(O)cc3[o+]c2-c2ccc(O)c(O)c2)[C@H](O)[C@@H](O)[C@@H]1O [Cyd-glc, cyanidin-3-glucoside]: 3.63
OC[C@H]1O[C@@H](Oc2cc3c(O)cc(O)cc3[o+]c2-c2cc(O)c(O)c(O)c2)[C@H](O)[C@@H](O)[C@@H]1O [Dpd-glc, delphinidin-3-glucoside]: 4.18
